# System: VchCAST RNA-guided transposition machinery (E. coli BL21(DE3) host, lacZ target)
# protocol-notes: relative integration efficiency (T-RL orientation) vs wild-type transposon end (log2 (normalized fold change)); transposon end mutated: left end; higher = more efficient transposition
A collection of sequences and their measured relative integration efficiency (log2)

AATGTTGTTGATGCAACCATAAAGTGATATTTACAACCATATATTGATATCTCACACAACCATAAGTTGATATTTTTGTGAATCGAGTATTTCAGCAAAACTACTGCAGTAAGAAAGTTACTTCGTGGTATGGGAGGATCAAGGAGCCAATA
-2.53

-- ask Please give the measured relative integration efficiency (log2) for this sequence: AATGTTGTTGATGCAACCATAAAGTGATATTTAATAATTATTTATAATCAGCAACTTAACCACAAAATGTGAATCGAGTATTTCAGCAAAACTACTGCAGTACAACCATATATTGATATCTCACAAAACAACCATAAGTTGATATTTTAGAA
-- reply -6.01

-- ask Record request: relative integration efficiency (log2) value, item AATGTTGTTGATGCAACCATAAAGTGATATTTAATAATTATTTATCCGACTACCAGGCCAACACCCCACCAACGCGCGGTCGCGAGACACCCCACCAACGCCTGGTCGCGGGGGTGTCCGATCTGATTTCAGCAAAACTACTGCAGTAAGAA
-- reply -6.94

-- ask Entry AATGTTGTTGATGCACCCATAAATTGATATTGCATAATTATTTATAATCAGCAACTTAACCACAAAACAACCATAAAGTGATATTTAACAAAAGTTGGTATTCAACTATAAAATGTGAATCGAGTATTTCAGCAAAACTACTGCAGTAAGAA has what relative integration efficiency (log2)?
-- reply -3.26

###

# System: VchCAST RNA-guided transposition machinery (E. coli BL21(DE3) host, lacZ target)
# protocol-notes: relative integration efficiency (T-RL orientation) vs wild-type transposon end (log2 (normalized fold change)); transposon end mutated: right end (5 bp flank + 75 bp right end); higher = more efficient transposition
Below, each entry is listed with its recorded relative integration efficiency (log2).
When you answer, write just the number.

Some solved entries appear below for comparison.
ACATTTGTTGATACAACCATAAAATGATAATTACACCCATAAATTGATAATTATCACAAAACGCCCGGTCGCGGTAAGAGGATCATAGTCAGACCAACATTGCTACGACCCGTATTCGCACCGACAC
-0.437
CACGGTGTTGATACAACCATAAAATGATAATTACACCCATAAATTGATAATTATCACACCCATAAATTGATATTGCCTCTGATCATAGTCAGACCAACATTGCTACGACCCGTATTCGCACCGACAC
-0.141

As a next step, examine the sequence that follows.
-- ask Value lookup for relative integration efficiency (log2); key = ACATTTGTTGATACAACCATAAAATGATAATTAATAATTATTTATACACCCATAAATTGATAATTATCACACCCATAAATTGATATTGCCTCTGATCATAGTCAGACCAACATTGCTACGACCCGTA
-- reply -3.6

###

Listing of entries alongside the reported relative integration efficiency (log2).
# System: VchCAST RNA-guided transposition machinery (E. coli BL21(DE3) host, lacZ target)
# protocol-notes: relative integration efficiency (T-LR orientation) vs wild-type transposon end (log2 (normalized fold change)); transposon end mutated: right end (5 bp flank + 75 bp right end); higher = more efficient transposition

-- ask Entry ACATTTGTTGATACAACCATAAAATGAGCATTACACCCATAAATTGATAATTATCACACCCATAAATTGATATTGCCTCTGATCATAGTCAGACCAACATTGCTACGACCCGTATTCGCACCGACAC : reported relative integration efficiency (log2) = ?
-- reply -0.621

-- ask Using the record for ACATTTGTTGATACAACCATAAAATGATAATTACACCCATAAATTGATAATTATCACACCCATAAATTGATATTTAAGCTGATCATAGTCAGACCAACATTGCTACGACCCGTATTCGCACCGACAC , report its relative integration efficiency (log2).
-- reply -0.0384
